Measured Target: UniProt P78527
Experimental Details: DNA-PK inhibition assay (ELISA, phosphorylation of GST-p53N66)
Type: biochemical, Mammalian (isolated from HeLa cell nuclear extract)
Condition Parameters: IC50, prior-art compound of WO 03/024949; methods as below in the patent
Description: In order to assess the inhibitory action of the compounds against DNA-PK in vitro, the following assay was used to determine IC50 values. To the assay mix, varying concentrations of inhibitor (in DMSO at a final concentration of 1%) were added. […] An anti-rabbit HRP conjugated secondary antibody (Pierce) was then employed in the ELISA before the addition of chemiluminescence reagent (NEN Renaissance) to detect the signal as measured by chemiluminescent counting via a TopCount NXT (Packard). […]
Readout Name: IC50

Write down IC50 measured for item O=c1cc(N2CCOCC2)oc2c(-c3cccc4c3sc3ccccc34)cccc12 [reference compound] 0.01 to 0.012 µM
